- Test system: MCF7
- test summary: NCI tumour cell line growth inhibition, 48 h
Active and inactive are the calls of the source. Rule as the data show it: active = GI50 up to about 1.1 µM and inactive = higher.
# valid calls are active, inactive; nothing else

Reference set (5 entries):
{"compound": "Cc1c2ccccc2c(C)n2c1nc1ccccc12", "discrete label": "inactive"}
{"compound": "O=C(/N=N/c1ccc(Br)cc1)NNc1ccc(Br)cc1", "discrete label": "inactive"}
{"compound": "O=C1C(Cl)=C(NCCN2CCOCC2)C(=O)c2c(O)ccc(O)c21", "discrete label": "inactive"}
{"compound": "CC1=C2CC(C)(C)/C=C\\C(=O)/C(C)=C\\C3=C[C@H](C)C[C@]3(O2)C1=O", "discrete label": "active"}
{"compound": "O=C1c2ccccc2S(=O)(=O)c2cc(-c3nn[nH]n3)ccc21", "discrete label": "inactive"}

stdin: Which outcome was entered for the compound CCCCCCCCCCCCCCCCOCC(CCl)OP(=O)(O)OP(=O)(O)OCC1OC(n2ccc(N)nc2=O)C(O)C1O (stereo not given) in this test?
stdout: inactive

stdin: Which outcome was entered for the compound CCC(O)(Cc1ccc(OC)cc1)c1ccc(OC)cc1 (stereo not given) in this test?
stdout: inactive

stdin: Which outcome was entered for the compound CN(C)S(=O)(=O)n1cnc(CO)c1 in this test?
stdout: inactive

stdin: Which outcome was entered for the compound c1c2c(cc3c1OCO3)-c1cc3ccc4c(c3c[n+]1CC2)OCO4 [COPTISINE CHLORIDE] in this test?
stdout: inactive

stdin: Which outcome was entered for the compound Oc1cc(-c2cccc3ccccc23)nc2ncccc12 in this test?
stdout: active

====

- Test system: COLO 205
- test summary: NCI tumour cell line growth inhibition, 48 h
Activity calls are given as the source filed them. Cut-off read from the data, not from the text of the source: active = GI50 up to about 1.1 µM and inactive = higher.
Let's look at some compounds and their measured GI50.

stdin: Given the entry CC(=O)O[C@H]1CC[C@@]2(C)[C@@H](CC[C@@H]3[C@@H]2CC(=O)[C@@]2(C)[C@H]3C[C@@H]3CC(C)=CC(=O)[C@@H]32)C1 , report its measured GI50.
stdout: 58.5 µM (inactive)

====

- Test system: SNB-75
- test summary: NCI tumour cell line growth inhibition, 48 h
Active and inactive are the calls of the source. No stated cut-off is given here; in the data, active = GI50 up to about 1.1 µM and inactive = higher.
# valid calls are active, inactive; nothing else

Reference set (5 entries):
{"compound": "O=c1[nH]c(=O)n(C2CC(O)C(CO)O2)cc1OCCCc1ccccc1 (stereo not given)", "discrete label": "inactive"}
{"compound": "O=C1c2ccccc2/C(=N\\c2ccc3ccccc3c2)C1(C1=C(c2ccccc2)/C(=N/c2ccc3ccccc3c2)c2ccccc21)c1ccccc1 (stereo not given)", "discrete label": "inactive"}
{"compound": "O=C(O)CCc1ccc(-c2ccccc2)[nH]1", "discrete label": "inactive"}
{"compound": "COc1ccc(CN[C@H]2CCc3cc(OC)c(OC)c(OC)c3-c3ccc(SC)c(=O)cc32)c(OC)c1OC", "discrete label": "active"}
{"compound": "CCN1C[C@]2(C)CC[C@H](OCc3ccccc3)C34C5C[C@@H]6CC[C@](O)(C(C[C@@H]32)C14)C5[C@H]6OCc1ccccc1 (stereo not given in full)", "discrete label": "inactive"}

stdin: Which outcome was entered for the compound Cc1cc2c(=O)c3ccccc3[nH]c2c(C(=O)O)c1C in this test?
stdout: inactive

stdin: Which outcome was entered for the compound Cc1cc(NC(=O)NC(=O)c2ccccc2NC(=O)CN)ccc1Oc1ncc(Br)cn1 in this test?
stdout: active

stdin: Which outcome was entered for the compound C=C1CN(C2=NCCO2)C1 in this test?
stdout: inactive

stdin: Which outcome was entered for the compound O=[N+]([O-])c1cccc2nc3ccccc3c(NCCCN3CCCCC3)c12 in this test?
stdout: active

stdin: Which outcome was entered for the compound Cc1ccc(CCNC(=S)SCC(NC(=O)CCC(N)C(=O)O)C(=O)NCC(=O)O)cc1 (stereo not given) in this test?
stdout: active

====

Let's look at some compounds and their measured GI50.
- System: M14
- test summary: NCI tumour cell line growth inhibition, 48 h
Activity calls are given as the source filed them. Rule as the data show it: active = GI50 up to about 1.1 µM and inactive = higher.

Guide cases for GI50, answers given:
{"compound": "[N-]=[N+]=CC(=O)C1(C(=O)C=[N+]=[N-])CC1", "GI50": "> 100 µM (inactive)"}
{"compound": "CCCCOC(=O)C1CN2C=CC=NC2=NC1(C(F)(F)F)C(F)(F)F (configuration not stated)", "GI50": "> 100 µM (inactive)"}
{"compound": "CCCCOC(=O)NC(c1ccccc1)C(O)C(=O)OC1C[C@@]2(O)C(OC(=O)c3ccccc3)C3[C@](C)(C(=O)[C@H](OC(C)=O)C(=C1C)C2(C)C)[C@@H](O)C[C@H]1OC[C@@]31OC(C)=O (some centres not stated)", "GI50": "0.0102 µM (active)"}
{"compound": "CC1=C(C(=O)OCCO[N+](=O)[O-])C(c2ccccc2C(F)(F)F)C(C(=O)OC(C)C)=C(C)N1 (configuration not stated)", "GI50": "13.1 µM (inactive)"}
{"compound": "O=C(O)CCc1ccc(-c2ccccc2)[nH]1", "GI50": "> 100 µM (inactive)"}

stdin: Given the entry N/N=C(\CC1OC(=O)c2ccccc21)c1ccco1 (configuration not stated) , report its measured GI50.
stdout: > 100 µM (inactive)

stdin: Given the entry O=C(Cn1ccnc1[N+](=O)[O-])NCc1ccc(F)cc1 , report its measured GI50.
stdout: > 100 µM (inactive)

stdin: Given the entry COC1/C=C/OC2(C)Oc3c(C)c(O)c4c(c3C2=O)C(=O)C=C(NC(=O)/C(C)=C\C=C\C(C)C(OC=O)C(C)C(O)C(C)C(OC(C)=O)C1C)C4=O (configuration not stated) , report its measured GI50.
stdout: 8.65 µM (inactive)

stdin: Given the entry COC(=O)C1=C(C)NC(=O)N2[C@@H](CCOCc3ccccc3)CC[C@@H]12 , report its measured GI50.
stdout: > 50 µM (inactive)

stdin: Given the entry c1ccc(CN[C@]23C4C5CC6C7C5C2C7[C@@](NCc2ccccc2)(C64)N3Cc2ccccc2)cc1 (some centres not stated) , report its measured GI50.
stdout: > 100 µM (inactive)

stdin: Given the entry CN(C)C1(C(=O)O)CC1 , report its measured GI50.
stdout: > 100 µM (inactive)

stdin: Given the entry C=C(Cl)C(C)(Cl)CCC(Cl)C(C)C (configuration not stated) , report its measured GI50.
stdout: 57.7 µM (inactive)

stdin: Given the entry Cc1ccc(S(=O)(=O)c2c(O)c3ccccc3n(C)c2=O)cc1 , report its measured GI50.
stdout: > 100 µM (inactive)

stdin: Given the entry Clc1ccc(-c2nn3c(COc4ccc(OCc5nnc6sc(-c7ccc(Cl)cc7)nn56)c(Cl)c4)nnc3s2)cc1 , report its measured GI50.
stdout: 31.7 µM (inactive)

stdin: Given the entry COc1c(C)c(OC)c(C(=O)CC(C)C)c(OC)c1C , report its measured GI50.
stdout: > 100 µM (inactive)

stdin: Given the entry BrC1(c2ccccc2)C[n+]2c(-c3ccccc3)cc(-c3ccccc3)cc2-c2ccccc21 (configuration not stated) , report its measured GI50.
stdout: 0.499 µM (active)

stdin: Given the entry COCOCCC#CCO , report its measured GI50.
stdout: > 100 µM (inactive)

====

Let's look at some compounds and their measured GI50.
- Test system: SNB-19
- test summary: NCI tumour cell line growth inhibition, 48 h
Activity calls are given as the source filed them. No stated cut-off is given here; in the data, active = GI50 up to about 1.1 µM and inactive = higher.

stdin: Given the entry Cc1cc(C)c(/C=C(\C(=C/c2c(C)cc(C)cc2C)[N+](=O)[O-])[N+](=O)[O-])c(C)c1 , report its measured GI50.
stdout: > 100 µM (inactive)

stdin: Given the entry CCOC(=O)c1sc2nc(SC)nc(Nc3ccc4c(c3)OCCCO4)c2c1N , report its measured GI50.
stdout: > 100 µM (inactive)

stdin: Given the entry Cc1ccc2c(=O)c(-c3nnc(N)s3)c[nH]c2n1 , report its measured GI50.
stdout: > 100 µM (inactive)

stdin: Given the entry CCP(=O)(CC)C(Cl)(Cl)C(=O)NC , report its measured GI50.
stdout: > 100 µM (inactive)

====

Let's look at some compounds and their measured GI50.
- Tested on: KM-20L2
- test summary: NCI tumour cell line growth inhibition, 48 h
Activity calls are given as the source filed them. Rule as the data show it: active = GI50 up to about 1.1 µM and inactive = higher.

{"compound": "CCCCCCCCC(O)C#CC(N)=O (stereo not given)", "measured metric": "GI50", "result": "15.6 µM (inactive)"}
{"compound": "CC1NOC(=O)C1/N=N/c1ccc(Cl)cc1Cl (stereo not given)", "measured metric": "GI50", "result": "30.6 µM (inactive)"}
{"compound": "C/C(CC(=O)Nc1ccc([N+](=O)[O-])cc1)=N\\Nc1ccc([N+](=O)[O-])cc1[N+](=O)[O-]", "measured metric": "GI50", "result": "32.8 µM (inactive)"}
{"compound": "O=c1n(CC2CO2)c(=O)n(CC2CO2)c(=O)n1CC1CO1 (stereo not given) [TEROXIRONE]", "measured metric": "GI50", "result": "68.5 µM (inactive)"}
{"compound": "Cc1ccc(NC(=O)CC/C(CC(=O)C(C)(C)C)=N/NC(=O)C[N+](C)(C)C)cc1C", "measured metric": "GI50", "result": "> 100 µM (inactive)"}
{"compound": "Cc1nc2ccccc2c(=O)n1/N=C(\\N=N\\c1cccc(Cl)c1)c1ccccc1Cl", "measured metric": "GI50", "result": "> 100 µM (inactive)"}
{"compound": "O=C(NCCO)c1ccc([N+](=O)[O-])cc1", "measured metric": "GI50", "result": "> 100 µM (inactive)"}
{"compound": "Cc1cc(N(CCC#N)CCC#N)ccc1/C=C(\\NC(=O)/C=C/c1ccccc1)NC(=O)Nc1ccccc1C", "measured metric": "GI50", "result": "> 100 µM (inactive)"}
{"compound": "CC(C)C(Nc1c2ccccc2[n+]([O-])c2ccccc12)C(=O)O (stereo not given)", "measured metric": "GI50", "result": "> 100 µM (inactive)"}

stdin: Given the entry Cn1c2c([N+](=O)[O-])[se]nc2c(=O)n1-c1ccc([N+](=O)[O-])cc1 , report its measured GI50.
stdout: 6.9 µM (inactive)
